Biological target: full-length human PDE4D5 isozyme (Homo sapiens, UniProt Q08499)
Construct: The full-length human PDE4D5 isozyme; His6 (N); TEV cleavage site (N); made in house; host or cells: baculovirus infected insect cells (unpurified lysate)
Sequence (Q08499 1-745 isoform Q08499-6): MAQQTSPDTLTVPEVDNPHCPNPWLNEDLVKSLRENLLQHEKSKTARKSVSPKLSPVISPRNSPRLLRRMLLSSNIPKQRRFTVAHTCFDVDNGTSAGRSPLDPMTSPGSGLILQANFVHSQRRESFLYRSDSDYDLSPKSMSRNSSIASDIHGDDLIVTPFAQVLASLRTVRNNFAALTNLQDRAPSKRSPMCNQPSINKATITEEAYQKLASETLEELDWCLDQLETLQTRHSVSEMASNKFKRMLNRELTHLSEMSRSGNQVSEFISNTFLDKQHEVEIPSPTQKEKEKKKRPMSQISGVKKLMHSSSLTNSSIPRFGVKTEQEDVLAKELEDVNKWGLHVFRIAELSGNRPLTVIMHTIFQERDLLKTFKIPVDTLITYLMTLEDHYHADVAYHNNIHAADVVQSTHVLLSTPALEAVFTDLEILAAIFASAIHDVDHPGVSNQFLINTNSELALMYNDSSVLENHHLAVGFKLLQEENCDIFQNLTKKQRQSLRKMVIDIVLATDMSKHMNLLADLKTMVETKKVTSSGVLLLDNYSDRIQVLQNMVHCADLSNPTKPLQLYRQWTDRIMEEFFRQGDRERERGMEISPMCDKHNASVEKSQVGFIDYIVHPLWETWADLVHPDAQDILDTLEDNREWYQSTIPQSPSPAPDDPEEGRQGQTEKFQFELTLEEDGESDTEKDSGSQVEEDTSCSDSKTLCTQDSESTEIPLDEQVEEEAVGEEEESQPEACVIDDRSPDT
Assay: PDE4 IC50 determination by Scintillation Proximity Assay, PDE4D5
Format: biochemical
Conditions: Table 1B, Formula I compounds; read-out: IC50 PDE4D5
pIC50: −log10 of the molar value.
Please respond with reported pIC50 for every item in the list.

Record excerpt, results attached:
>  <compound>
NC(=O)c1c(NC2CCCC2)sc(C(=O)c2cc(-c3ccc(N)cc3)no2)c1N [Compound 1-253]

>  <measured value>
> 5.00

$$$$
>  <compound>
Cc1c(NC2CCCC2)sc(C(=O)c2cc(-c3ccccc3)no2)c1N [Compound 1-240]

>  <measured value>
> 5.00

$$$$
>  <compound>
N#Cc1c(Nc2ccccc2)sc(C(=O)c2ccc3ccccc3c2)c1N [Compound 1-35]

>  <measured value>
> 5.00

$$$$
>  <compound>
COc1ccc(Nc2sc(C(=O)c3ccccc3Cl)c(N)c2C#N)cc1 [Compound 1-110]

>  <measured value>
> 5.00

$$$$
>  <compound>
Cc1ccc(C(=O)c2sc(NC3CCCC3)c(C#N)c2N)c(C)c1 [Compound 1-90]

>  <measured value>
> 5.00

$$$$

Hello, I would appreciate it if you could give pIC50 for each entry below.
1. COc1ccc(CNc2sc(C(=O)c3ccc(-c4ccccn4)s3)c(N)c2C#N)cc1OC [Compound 1-75]
2. CC(C)C(C)Nc1sc(C(=O)c2cc(-c3ccc(Cl)c(Cl)c3)no2)c(N)c1C(N)=O (stereo not drawn) [Compound 1-248]
3. CC(C)NC(=O)c1cc(C(=O)c2sc(NC3CCCC3)c(C#N)c2N)on1 [Compound 1-189]
4. COc1ccc(C(=O)c2sc(Nc3ccc(F)cc3)c(C#N)c2N)cc1 [Compound 1-37]

1: > 5.00; 2: < 5.00; 3: > 5.00; 4: > 5.00

For each of the compounds below, state pIC50.
1. COc1ccc(Nc2sc(C(=O)c3cc(-c4ccc(Cl)cc4Cl)no3)c(N)c2C#N)cc1 [Compound 1-164]
2. N#Cc1c(Nc2ccc(Oc3ccccc3)cc2)sc(C(=O)c2ccccc2Cl)c1N [Compound 1-161]
3. N#Cc1c(Nc2ccccc2)sc(C(=O)C2CC2)c1N [Compound 1-28]
4. N#Cc1c(Nc2ccccc2)sc(C(=O)c2ccc(-c3ccccc3)cc2)c1N [Compound 1-34]
5. CCC(CC)Nc1sc(C(=O)c2cc(-c3ccccc3)no2)c(N)c1C#N [Compound 1-228]
6. CC(C)CNc1sc(C(=O)c2cc(-c3ccc(Cl)c(Cl)c3)no2)c(N)c1C(N)=O [Compound 1-245]
7. N#Cc1c(NCCN2CCCCC2)sc(C(=O)c2cc(-c3ccc(Cl)c(Cl)c3)no2)c1N [Compound 1-83]
8. CC(C)Nc1sc(C(=O)c2cc(-c3ccc(Cl)cc3)no2)c(N)c1C#N [Compound 1-212]

1: < 5.00; 2: > 5.00; 3: > 5.00; 4: > 5.00; 5: < 5.00; 6: > 5.00; 7: < 5.00; 8: < 5.00

The following compounds each have a reported value; give each one's pIC50.
1. CC(C)C(C)Nc1sc(C(=O)c2cc(-c3ccccc3)no2)c(N)c1C#N (stereo not drawn) [Compound 1-223]
2. Cc1c(C(=O)c2sc(NC3CCCC3)c(C#N)c2N)cnn1-c1ccccc1 [Compound 1-55]
3. COc1ccc(C(=O)c2sc(Nc3ccccc3)c(C#N)c2N)cc1 [Compound 1-31]
4. N#Cc1c(NC2CCCC2)sc(C(=O)c2ccc(-c3ccccn3)s2)c1N [Compound 1-78]
5. N#Cc1c(Nc2ccc(Oc3ccccc3)cc2)sc(C(=O)C2CCCC2)c1N [Compound 1-195]

["< 5.00", "> 5.00", "> 5.00", "> 5.00", "> 5.00"]

Fill in pIC50 for each of the 2 compounds listed.
1. CCC(C)Nc1sc(C(=O)c2cc(-c3ccccc3)no2)c(N)c1C#N (stereo not drawn) [Compound 1-222]
2. CCc1c(Nc2ccc(Oc3ccccc3)cc2)sc(C(=O)c2ccccc2)c1N [Compound 1-243]

1: < 5.00; 2: < 5.00
